Give cell viability for every item shown.
System: UCD52 (cells of a triple-negative basal-like breast cancer xenograft)
EXPERIMENTAL DETAILS: cell viability (% of vehicle); higher = less cytotoxic
ASSAY CONTEXT: 10 µM; 72 h
Numbers only.

Worked set:
- MOLECULE: "Cc1ccc(Nc2nccc(N(C)c3ccc4c(C)n(C)nc4c3)n2)cc1S(N)(=O)=O.Cl [Pazopanib Hydrochloride]"
  cell viability: 94.9
- MOLECULE: "CCC(C)C(=O)OC1CCC=C2C=CC(C)C(CCC3CC(O)CC(=O)O3)C21 (stereo not given) [Mevastatin]"
  cell viability: 54.2
- MOLECULE: "CN1CCN(c2ccc3c(c2)NC(=C2C(=O)N=c4cccc(F)c4=C2N)N3)CC1 [Dovitinib (TKI-258, CHIR-258)]"
  cell viability: 125
- MOLECULE: "CCC1OC(=O)C(C)C(OC2CC(C)(OC)C(O)C(C)O2)C(C)C(OC2OC(C)CC(N(C)C)C2O)C(C)(O)CC(C)C(=O)C(C)C(O)C1(C)O (stereo not given) [Erythromycin]"
  cell viability: 95
- MOLECULE: "[O-][n+]1cccc(CO)c1 [Mepiroxol]"
  cell viability: 90.9
- MOLECULE: "Cc1nc(NC(=O)N2CCCC2C(N)=O)sc1-c1ccnc(C(C)(C)C(F)(F)F)c1 (stereo not given)"
  cell viability: 38.5
- MOLECULE: "CN(C)CCC(c1ccc(Br)cc1)c1ccccn1.O=C(O)C=CC(=O)O (stereo not given) [Brompheniramine hydrogen maleate]"
  cell viability: 74.9
- MOLECULE: "CCOC(=O)CCC(=O)OC1C(OC2C(C)C(OC3CC(C)(OC)C(O)C(C)O3)C(C)C(=O)OC(CC)C(C)(O)C(O)C(C)C(=O)C(C)CC2(C)O)OC(C)CC1N(C)C (stereo not given) [Erythromycin Ethylsuccinate]"
  cell viability: 87.3

I need cell viability for every entry listed below, if you could help.
1. Cc1nccn1CC1CCc2c(c3ccccc3n2C)C1=O.Cl (stereo not given) [Ondansetron HCl]
2. O=c1ccc2ccc(OCCCCN3CCN(c4cccc5sccc45)CC3)cc2[nH]1 [Brexpiprazole]
3. COc1ccc(C2CNC(=O)C2)cc1OC1CCCC1 (stereo not drawn) [S- (+)-Rolipram]
4. Cl.NC(N)=NC(=O)Cc1c(Cl)cccc1Cl [Guanfacine hydrochloride]
5. CCCC(NC(C)C(=O)N1C(C(=O)O)CC2CCCCC21)C(=O)OCC (stereo not given) [Perindopril]

[80.3, 78.3, 99.5, 93.2, 103]

I need cell viability for every entry listed below, if you could help.
1. O=C(Nc1c(Cl)cncc1Cl)c1ccc(OC(F)F)c(OCC2CC2)c1 [Roflumilast]
2. COc1cc(NS(=O)(=O)c2ccc(N)cc2)nc(OC)n1 [Sulfadimethoxine]

1. 119
2. 112

----------
System: HCI03 (cells of an ER-positive luminal breast cancer xenograft)
EXPERIMENTAL DETAILS: cell viability (% of vehicle); higher = less cytotoxic
ASSAY CONTEXT: 10 µM; 72 h
Give cell viability for every item shown.
One number for each entry.

Worked set:
- COMPOUND: "COc1cc(Nc2ncc3c(n2)-c2ccc(Cl)cc2C(c2c(F)cccc2OC)=NC3)ccc1C(=O)O"
  OBSERVED RESULT: 118
- COMPOUND: "C[N+]1(C)C2CCC1CC(OC(=O)C(O)c1ccccc1)C2.[Br-] (stereo not drawn) [Homatropine Methylbromide]"
  OBSERVED RESULT: 97.6

Kindly consider the entry below.
The reported value for CCC(C)n1ncn(-c2ccc(N3CCN(c4ccc(OCC5COC(Cn6cncn6)(c6ccc(Cl)cc6Cl)O5)cc4)CC3)cc2)c1=O (stereo not drawn) in terms of cell viability is 81.2

----------
System: UCD52
EXPERIMENTAL DETAILS: cell viability (% of vehicle); higher = less cytotoxic
ASSAY CONTEXT: 10 µM; 72 h
REPORTED METRIC: cell viability
Numbers only.

Worked set:
- COMPOUND: "CC1(C)SC2C(NC(=O)C(N)c3ccccc3)C(=O)N2C1C(=O)[O-].[Na+] (configuration not stated)"
  REPORTED METRIC: "cell viability"
  OBSERVED RESULT: 83.5
- COMPOUND: "CC[N+](CC)(CC)CCOc1cccc(OCC[N+](CC)(CC)CC)c1OCC[N+](CC)(CC)CC.[I-].[I-].[I-] [Gallamine Triethiodide]"
  REPORTED METRIC: "cell viability"
  OBSERVED RESULT: 98
- COMPOUND: "O=C(CCc1ccc(O)cc1)c1c(O)cc(O)cc1OC1OC(CO)C(O)C(O)C1O (configuration not stated)"
  REPORTED METRIC: "cell viability"
  OBSERVED RESULT: 105
- COMPOUND: "CC(C)c1nc(CN(C)C(=O)NC(CCN2CCOCC2)C(=O)NC(CCC(Cc2ccccc2)NC(=O)OCc2cncs2)Cc2ccccc2)cs1 (configuration not stated) [Cobicistat (GS-9350)]"
  REPORTED METRIC: "cell viability"
  OBSERVED RESULT: 67
- COMPOUND: "CC(C(=O)[O-])c1cccc(Oc2ccccc2)c1.CC(C(=O)[O-])c1cccc(Oc2ccccc2)c1.[Ca+2] (configuration not stated)"
  REPORTED METRIC: "cell viability"
  OBSERVED RESULT: 83
- COMPOUND: "N#CCC(C1CCCC1)n1cc(-c2ncnc3[nH]ccc23)cn1 (configuration not stated)"
  REPORTED METRIC: "cell viability"
  OBSERVED RESULT: 118

I need cell viability for every entry listed below, if you could help.
1. COc1cc2nc(N3CCN(C(=O)C4CCCO4)CC3)nc(N)c2cc1OC.Cl.O.O (configuration not stated) [Terazosin HCl]
2. CC1(COc2ccc3c(c2)ncn3-c2ccc3cccc(N4CCC(N)CC4)c3n2)COC1
3. OCCN1CC(O)C(O)C(O)C1CO (configuration not stated)

85.8
34
86.2

I need cell viability for every entry listed below, if you could help.
1. OCC(O)CN1CCN(c2ccccc2)CC1 (configuration not stated)
2. C=C1C(=CC=C2CCCC3(C)C2CCC3C(C)CCCC(C)(C)O)CC(O)CC1O (configuration not stated)
3. C[N+]1(C)C2CCC1CC(OC(=O)C(O)c1ccccc1)C2.[Br-] (configuration not stated) [Homatropine Methylbromide]
4. NC(=O)c1cccnc1 [Nicotinamide]
5. CCCCN1CCCCC1C(=O)Nc1c(C)cccc1C.Cl (configuration not stated) [Bupivacaine HCl]
6. CCc1oc2ccccc2c1C(=O)c1cc(Br)c(O)c(Br)c1

1. 98.7
2. 55.7
3. 104
4. 99.6
5. 89
6. 76

I need cell viability for every entry listed below, if you could help.
1. CCCC(=O)[O-].[Na+] [Sodium butyrate]
2. O=C1Nc2ccc(Cl)cc2C(C#CC2CC2)(C(F)(F)F)O1 (configuration not stated)

73.7
69.5

----------
Test system: HCI09 (cells of a triple-negative luminal androgen receptor type breast cancer xenograft)
EXPERIMENTAL DETAILS: cell viability (% of vehicle); higher = less cytotoxic
ASSAY CONTEXT: 10 µM; 72 h
Give cell viability for every item shown.
Numbers only.

- MOLECULE: "Nc1ccn(C2OC(CO)C(O)C2O)c(=O)n1 (centres undefined)"
  TEST SYSTEM: "HCI09"
  cell viability: 98.9
- MOLECULE: "CC1(c2nc3c(C(N)=O)cccc3[nH]2)CCCN1 (centres undefined)"
  TEST SYSTEM: "HCI09"
  cell viability: 108
- MOLECULE: "CN1C(C(=O)Nc2ccccn2)=C(O)c2sccc2S1(=O)=O"
  TEST SYSTEM: "HCI09"
  cell viability: 114
- MOLECULE: "CC(Cc1cc2c(c(C(N)=O)c1)N(CCCO)CC2)NCCOc1ccccc1OCC(F)(F)F (centres undefined)"
  TEST SYSTEM: "HCI09"
  cell viability: 106
- MOLECULE: "Cc1ccccc1C(=O)Nc1ccc(C(=O)N2CCCC(O)c3cc(Cl)ccc32)c(C)c1 (centres undefined)"
  TEST SYSTEM: "HCI09"
  cell viability: 80.4

I need cell viability for every entry listed below, if you could help.
1. CCCCOc1ccc(OCCCN2CCOCC2)cc1.Cl [Pramoxine HCl]
2. Clc1ccc2nsnc2c1NC1=NCCN1

92.4
149

I need cell viability for every entry listed below, if you could help.
1. NC(=O)N1c2ccccc2C=Cc2ccccc21 [Carbamazepine]
2. O=C(CCCCCCNC(=O)c1cnc(N(c2ccccc2)c2ccccc2)nc1)NO

1: 94.3; 2: 45.1

----------
Tested on: HCI01 (cells of a triple-negative basal-like breast cancer xenograft)
EXPERIMENTAL DETAILS: cell viability of combination (% of vehicle); higher = less cytotoxic
ASSAY CONTEXT: 1 µM; 72 h; partner dose: 10 nM
Give cell viability of combination for every item shown.
Give bare numbers.

Worked set:
- MOLECULE: "Cc1cn(-c2cc(NC(=O)c3ccc(C)c(Nc4nccc(-c5cccnc5)n4)c3)cc(C(F)(F)F)c2)cn1 [Nilotinib(AMN-107)] + CC(C)C[C@H](NC(=O)[C@H](CCc1ccccc1)NC(=O)CN1CCOCC1)C(=O)N[C@@H](Cc1ccccc1)C(=O)N[C@@H](CC(C)C)C(=O)[C@@]1(C)CO1"
  TEST SYSTEM: "HCI01"
  cell viability of combination: 69.1
- MOLECULE: "CC(C)N=c1cc2n(-c3ccc(Cl)cc3)c3ccccc3nc-2cc1Nc1ccc(Cl)cc1 [Clofazimine] + CC(C)C[C@H](NC(=O)[C@H](CCc1ccccc1)NC(=O)CN1CCOCC1)C(=O)N[C@@H](Cc1ccccc1)C(=O)N[C@@H](CC(C)C)C(=O)[C@@]1(C)CO1"
  TEST SYSTEM: "HCI01"
  cell viability of combination: 71.9
- MOLECULE: "C=C1C(=CC=C2CCCC3(C)C2CCC3C(C)CCCC(C)C)CC(O)CC1O (stereo not drawn) [Alfacalcidol] + CC(C)C[C@H](NC(=O)[C@H](CCc1ccccc1)NC(=O)CN1CCOCC1)C(=O)N[C@@H](Cc1ccccc1)C(=O)N[C@@H](CC(C)C)C(=O)[C@@]1(C)CO1"
  TEST SYSTEM: "HCI01"
  cell viability of combination: 55.4
- MOLECULE: "CC[C@H](C)[C@H]1O[C@]2(CC[C@@H]1C)C[C@@H]1C[C@@H](C/C=C(\\C)[C@@H](O[C@H]3C[C@H](OC)[C@@H](O[C@H]4C[C@H](OC)[C@@H](O)[C@H](C)O4)[C@H](C)O3)[C@@H](C)/C=C/C=C3\\CO[C@@H]4[C@H](O)C(C)=C[C@@H](C(=O)O1)[C@]34O)O2 [Ivermectin] + CC(C)C[C@H](NC(=O)[C@H](CCc1ccccc1)NC(=O)CN1CCOCC1)C(=O)N[C@@H](Cc1ccccc1)C(=O)N[C@@H](CC(C)C)C(=O)[C@@]1(C)CO1"
  TEST SYSTEM: "HCI01"
  cell viability of combination: 92.6

I need cell viability of combination for every entry listed below, if you could help.
1. COc1ccccc1OCCNCC(O)COc1cccc2[nH]c3ccccc3c12 (stereo not drawn) [Carvedilol] + CC(C)C[C@H](NC(=O)[C@H](CCc1ccccc1)NC(=O)CN1CCOCC1)C(=O)N[C@@H](Cc1ccccc1)C(=O)N[C@@H](CC(C)C)C(=O)[C@@]1(C)CO1
2. CC1=C(C(=O)OC(C)C)C(c2cccc([N+](=O)[O-])c2)C(C(=O)OC2CN(C(c3ccccc3)c3ccccc3)C2)=C(N)N1 (stereo not drawn) [Azelnidipine] + CC(C)C[C@H](NC(=O)[C@H](CCc1ccccc1)NC(=O)CN1CCOCC1)C(=O)N[C@@H](Cc1ccccc1)C(=O)N[C@@H](CC(C)C)C(=O)[C@@]1(C)CO1
3. O=C(C=Cn1cnc(-c2cc(C(F)(F)F)cc(C(F)(F)F)c2)n1)NNc1cnccn1 + CC(C)C[C@H](NC(=O)[C@H](CCc1ccccc1)NC(=O)CN1CCOCC1)C(=O)N[C@@H](Cc1ccccc1)C(=O)N[C@@H](CC(C)C)C(=O)[C@@]1(C)CO1
4. COc1ncc(-c2ccc3nccc(-c4ccnnc4)c3c2)cc1NS(=O)(=O)c1ccc(F)cc1F + CC(C)C[C@H](NC(=O)[C@H](CCc1ccccc1)NC(=O)CN1CCOCC1)C(=O)N[C@@H](Cc1ccccc1)C(=O)N[C@@H](CC(C)C)C(=O)[C@@]1(C)CO1
5. Nc1ccc2cc3ccc([NH3+])cc3nc2c1.Nc1ccc2cc3ccc([NH3+])cc3nc2c1.O=S(=O)([O-])[O-] [Proflavine Hemisulfate] + CC(C)C[C@H](NC(=O)[C@H](CCc1ccccc1)NC(=O)CN1CCOCC1)C(=O)N[C@@H](Cc1ccccc1)C(=O)N[C@@H](CC(C)C)C(=O)[C@@]1(C)CO1
6. CCN(CC)CCNC(=O)c1c(C)[nH]c(C=C2C(=O)Nc3ccc(F)cc32)c1C [Sunitinib] + CC(C)C[C@H](NC(=O)[C@H](CCc1ccccc1)NC(=O)CN1CCOCC1)C(=O)N[C@@H](Cc1ccccc1)C(=O)N[C@@H](CC(C)C)C(=O)[C@@]1(C)CO1
7. CCC(=C(c1ccccc1)c1ccc(OCCN(C)C)cc1)c1ccccc1.O=C(O)CC(O)(CC(=O)O)C(=O)O [Tamoxifen Citrate] + CC(C)C[C@H](NC(=O)[C@H](CCc1ccccc1)NC(=O)CN1CCOCC1)C(=O)N[C@@H](Cc1ccccc1)C(=O)N[C@@H](CC(C)C)C(=O)[C@@]1(C)CO1

[76.8, 112, 57.3, 37.6, 78, 66, 90.4]

I need cell viability of combination for every entry listed below, if you could help.
1. CC(C)COc1ccc(CNC(=O)N(Cc2ccc(F)cc2)C2CCN(C)CC2)cc1 [Pimavanserin] + CC(C)C[C@H](NC(=O)[C@H](CCc1ccccc1)NC(=O)CN1CCOCC1)C(=O)N[C@@H](Cc1ccccc1)C(=O)N[C@@H](CC(C)C)C(=O)[C@@]1(C)CO1
2. C#Cc1cccc(Nc2ncnc3cc(OCCOC)c(OCCOC)cc23)c1 [Erlotinib] + CC(C)C[C@H](NC(=O)[C@H](CCc1ccccc1)NC(=O)CN1CCOCC1)C(=O)N[C@@H](Cc1ccccc1)C(=O)N[C@@H](CC(C)C)C(=O)[C@@]1(C)CO1

1: 76.1; 2: 66.8
